Reported IC50 values follow for various molecules
Biological target: Genome polyprotein (dengue virus type 2)
Sequence (P29990 2492-3391 limits assumed): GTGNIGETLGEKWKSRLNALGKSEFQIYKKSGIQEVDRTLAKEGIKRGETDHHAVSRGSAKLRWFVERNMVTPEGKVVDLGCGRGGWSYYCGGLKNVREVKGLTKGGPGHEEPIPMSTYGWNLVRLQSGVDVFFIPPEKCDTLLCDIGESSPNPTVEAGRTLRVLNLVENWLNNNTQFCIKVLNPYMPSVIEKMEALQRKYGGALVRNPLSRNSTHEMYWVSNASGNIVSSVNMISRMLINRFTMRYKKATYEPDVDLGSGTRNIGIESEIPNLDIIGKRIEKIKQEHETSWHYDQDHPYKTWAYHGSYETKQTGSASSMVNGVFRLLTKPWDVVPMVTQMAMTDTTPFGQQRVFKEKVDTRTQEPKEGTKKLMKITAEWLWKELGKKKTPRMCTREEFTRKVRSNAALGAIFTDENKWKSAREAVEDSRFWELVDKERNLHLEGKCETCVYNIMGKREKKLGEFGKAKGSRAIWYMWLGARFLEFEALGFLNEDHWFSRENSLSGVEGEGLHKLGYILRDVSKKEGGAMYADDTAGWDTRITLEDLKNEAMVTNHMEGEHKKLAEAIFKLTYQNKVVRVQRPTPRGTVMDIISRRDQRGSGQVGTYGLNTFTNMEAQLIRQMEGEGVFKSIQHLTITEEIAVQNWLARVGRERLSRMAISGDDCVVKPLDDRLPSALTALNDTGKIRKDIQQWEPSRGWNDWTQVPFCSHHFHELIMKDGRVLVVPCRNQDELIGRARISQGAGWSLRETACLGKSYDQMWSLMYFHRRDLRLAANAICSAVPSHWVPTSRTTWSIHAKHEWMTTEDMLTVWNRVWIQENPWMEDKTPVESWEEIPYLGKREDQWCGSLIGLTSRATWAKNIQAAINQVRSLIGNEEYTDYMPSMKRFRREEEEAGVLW
Assay: flavivirus cap methylation enzyme inhibition – biochemical, confirmation dose response, primary screen (AID 588689)
Format: functional
The source made the active and inactive calls. No rule for the calls is given here.

Past entries and their recorded results:
O=C1c2ccccc2C(=O)N1OS(=O)(=O)c1ccc(F)cc1    > 100 µM (active)
CC(C)(C)c1ccc(OCC(=O)NNC(=S)NC(=O)c2ccccc2[N+](=O)[O-])c(Br)c1    56 µM (active)

Next, consider the following molecule.
Could you share which IC50 value was measured for "O=C(O)CCC(=O)NCCc1c(/C=C2/C(=O)NC(=S)N(Cc3ccc(F)cc3)C2=O)[nH]c2ccccc12" ?
> 100 µM (active)
